test system: Acinetobacter baumannii; details: Acinetobacter baumannii ATCC 19606; broth microdilution in CAMHB
Positions of bridges follow the written chain, without caps; N, C: chain ends. Non-standard residues stand in square brackets, D forms with d. Residues, ends and D or L forms follow the SMILES beside them. *: point of attachment. Benzoyl(3,5-Cl2) = O=C(c1cc(Cl)cc(Cl)c1)*; Dab = NCC[C@H](N)C(=O)O; Dap = NC[C@H](N)C(=O)O
ENDPOINT LABEL: Minimum inhibitory concentration, Ab ATCC 19606 (µg/mL)
Unit µg/mL implied. Number only.

The compound identified as CC(C)C[C@H]1NC(=O)[C@H](CCN)NC(=O)[C@@H](NC(=O)[C@H](CN)NC(=O)[C@@H](NC(=O)[C@H](CCN)NC(=O)c2cc(Cl)cc(Cl)c2)[C@@H](C)O)CCNC(=O)[C@H]([C@@H](C)O)NC(=O)[C@H](CCN)NC(=O)[C@H](CCN)NC(=O)[C@H]([C@@H](C)O)NC1=O [Compound 118] ({Benzoyl(3,5-Cl2)}-[Dab]T[Dap][Dab][Dab][dL]T[Dab][Dab]T; lactam 4-C) registered its Minimum inhibitory concentration, Ab ATCC 19606 at 2

###

tested on: Acinetobacter baumannii; details: Acinetobacter baumannii ATCC 19606; broth microdilution in CAMHB
Positions of bridges follow the written chain, without caps; N, C: chain ends. Non-standard residues stand in square brackets, D forms with d. Residues, ends and D or L forms follow the SMILES beside them. *: point of attachment. Phenylacetyl(3-Cl) = O=C(Cc1cccc(Cl)c1)*; Dab = NCC[C@H](N)C(=O)O; Abu = CC[C@H](N)C(=O)O; Dap = NC[C@H](N)C(=O)O; PhAc = O=C(Cc1ccccc1)*
ENDPOINT LABEL: Minimum inhibitory concentration, Ab ATCC 19606 (µg/mL)
Unit µg/mL implied. Number only.

The compound identified as CC(C)C[C@H]1NC(=O)[C@H](CCN)NC(=O)[C@@H](NC(=O)[C@H](CN)NC(=O)[C@@H](NC(=O)[C@H](CCN)NC(=O)Cc2cccc(Cl)c2)[C@@H](C)O)CCNC(=O)[C@H]([C@@H](C)O)NC(=O)[C@H](CCN)NC(=O)[C@H](CCN)NC(=O)[C@H]([C@@H](C)O)NC1=O [Compound 61] ({Phenylacetyl(3-Cl)}-[Dab]T[Dap][Dab][Dab][dL]T[Dab][Dab]T; lactam 4-C) registered its Minimum inhibitory concentration, Ab ATCC 19606 at 4

The compound identified as CC[C@@H]1NC(=O)[C@@H](CC(C)C)NC(=O)[C@H](CCN)NC(=O)[C@@H](NC(=O)[C@H](CN)NC(=O)[C@@H](NC(=O)[C@H](CCN)NC(=O)Cc2ccccc2)[C@@H](C)O)CCNC(=O)[C@H]([C@@H](C)O)NC(=O)[C@H](CCN)NC(=O)[C@H](CCN)NC1=O [Compound 78] (PhAc-[Dab]T[Dap][Dab][Dab][dL][Abu][Dab][Dab]T; lactam 4-C) registered its Minimum inhibitory concentration, Ab ATCC 19606 at 4

###

// reported MIC for each item listed
Tested on: Klebsiella pneumoniae
Conditions: K. pneumoniae FADDI-KP032
Description: MICs of the lipopeptides (trifluoroacetic acid salt, TFA) were determined by broth microdilution in cation-adjusted Mueller-Hinton broth (CAMHB) (Oxoid Australia, Thebarton, SA, Australia) according to Clinical and Laboratory Standards Institute standards (Clinical and Laboratory Standards Institute. Performance standards for antimicrobial susceptibility testing; eighteenth informational supplement M100-S18. Wayne, Pa., 2008). Polymyxin B (sulphate) was employed as control. […]
Positions of bridges follow the written chain, without caps; N, C: chain ends. Non-standard residues stand in square brackets, D forms with d. Residues, ends and D or L forms follow the SMILES beside them. *: point of attachment. Benzoyl(4-(4-Cl-Ph)) = O=C(c1ccc(-c2ccc(Cl)cc2)cc1)*; Benzoyl(3,5-Cl2) = O=C(c1cc(Cl)cc(Cl)c1)*; Benzoyl(4-Ph) = O=C(c1ccc(-c2ccccc2)cc1)*; Phenylacetyl(3-Cl) = O=C(Cc1cccc(Cl)c1)*; Benzoyl(3-Cl) = O=C(c1cccc(Cl)c1)*; X4 = O=C(c1ccc(Cl)c(Cl)c1)*; X3 = O=C(c1ccc(Cl)cc1Cl)*; Dab = NCC[C@H](N)C(=O)O; Abu = CC[C@H](N)C(=O)O; Dap = NC[C@H](N)C(=O)O

// known answers, use as guide
COMPOUND	MIC
CC[C@@H]1NC(=O)[C@@H](CC(C)C)NC(=O)[C@H](CCN)NC(=O)[C@@H](NC(=O)[C@H](CN)NC(=O)[C@@H](NC(=O)[C@H](CCN)NC(=O)c2ccc(Cl)cc2Cl)[C@@H](C)O)CCNC(=O)[C@H]([C@@H](C)O)NC(=O)[C@H](CCN)NC(=O)[C@H](CCN)NC1=O [Compound 82] (X3-[Dab]T[Dap][Dab][Dab][dL][Abu][Dab][Dab]T; lactam 4-C)	<0.125 µg/mL
CC[C@@H]1NC(=O)[C@@H](CC(C)C)NC(=O)[C@H](CCN)NC(=O)[C@@H](NC(=O)[C@H](CN)NC(=O)[C@@H](NC(=O)[C@H](CCN)NC(=O)c2cc(Cl)cc(Cl)c2)[C@@H](C)O)CCNC(=O)[C@H]([C@@H](C)O)NC(=O)[C@H](CCN)NC(=O)[C@H](CCN)NC1=O [Compound 96] ({Benzoyl(3,5-Cl2)}-[Dab]T[Dap][Dab][Dab][dL][Abu][Dab][Dab]T; lactam 4-C)	<0.125 µg/mL
CC[C@@H]1NC(=O)[C@@H](CC(C)C)NC(=O)[C@H](CCN)NC(=O)[C@@H](NC(=O)[C@H](CN)NC(=O)[C@@H](NC(=O)[C@H](CCN)NC(=O)c2ccc(Cl)c(Cl)c2)[C@@H](C)O)CCNC(=O)[C@H]([C@@H](C)O)NC(=O)[C@H](CCN)NC(=O)[C@H](CCN)NC1=O [Compound 71] (X4-[Dab]T[Dap][Dab][Dab][dL][Abu][Dab][Dab]T; lactam 4-C)	0.5 µg/mL
CC(C)C[C@H]1NC(=O)[C@H](CCN)NC(=O)[C@@H](NC(=O)[C@H](CN)NC(=O)[C@@H](NC(=O)[C@H](CCN)NC(=O)c2ccc(-c3ccc(Cl)cc3)cc2)[C@@H](C)O)CCNC(=O)[C@H]([C@@H](C)O)NC(=O)[C@H](CCN)NC(=O)[C@H](CCN)NC(=O)[C@H](C)NC1=O [Compound 144] ({Benzoyl(4-(4-Cl-Ph))}-[Dab]T[Dap][Dab][Dab][dL]A[Dab][Dab]T; lactam 4-C)	1 µg/mL
CC(C)C[C@H]1NC(=O)[C@H](CCN)NC(=O)[C@@H](NC(=O)[C@H](CN)NC(=O)[C@@H](NC(=O)[C@H](CCN)NC(=O)c2cc(Cl)cc(Cl)c2)[C@@H](C)O)CCNC(=O)[C@H]([C@@H](C)O)NC(=O)[C@H](CCN)NC(=O)[C@H](CCN)NC(=O)[C@H](C)NC1=O [Compound 117] ({Benzoyl(3,5-Cl2)}-[Dab]T[Dap][Dab][Dab][dL]A[Dab][Dab]T; lactam 4-C)	0.25 µg/mL
CC[C@@H]1NC(=O)[C@@H](CC(C)C)NC(=O)[C@H](CCN)NC(=O)[C@@H](NC(=O)[C@H](CN)NC(=O)[C@@H](NC(=O)[C@H](CCN)NC(=O)c2ccc(-c3ccccc3)cc2)[C@@H](C)O)CCNC(=O)[C@H]([C@@H](C)O)NC(=O)[C@H](CCN)NC(=O)[C@H](CCN)NC1=O [Compound 142] ({Benzoyl(4-Ph)}-[Dab]T[Dap][Dab][Dab][dL][Abu][Dab][Dab]T; lactam 4-C)	0.25 µg/mL
CC[C@@H]1NC(=O)[C@@H](CC(C)C)NC(=O)[C@H](CCN)NC(=O)[C@@H](NC(=O)[C@H](CN)NC(=O)[C@@H](NC(=O)[C@H](CCN)NC(=O)c2cccc(Cl)c2)[C@@H](C)O)CCNC(=O)[C@H]([C@@H](C)O)NC(=O)[C@H](CCN)NC(=O)[C@H](CCN)NC1=O [Compound 88] ({Benzoyl(3-Cl)}-[Dab]T[Dap][Dab][Dab][dL][Abu][Dab][Dab]T; lactam 4-C)	0.5 µg/mL
CC[C@@H]1NC(=O)[C@@H](CC(C)C)NC(=O)[C@H](CCN)NC(=O)[C@@H](NC(=O)[C@H](CN)NC(=O)[C@@H](NC(=O)[C@H](CCN)NC(=O)Cc2cccc(Cl)c2)[C@@H](C)O)CCNC(=O)[C@H]([C@@H](C)O)NC(=O)[C@H](CCN)NC(=O)[C@H](CCN)NC1=O [Compound 79] ({Phenylacetyl(3-Cl)}-[Dab]T[Dap][Dab][Dab][dL][Abu][Dab][Dab]T; lactam 4-C)	<0.125 µg/mL
CC(C)C[C@H]1NC(=O)[C@H](CCN)NC(=O)[C@@H](NC(=O)[C@H](CCN)NC(=O)[C@@H](NC(=O)[C@H](CCN)NC(=O)c2ccc(-c3ccccc3)cc2)[C@@H](C)O)CCNC(=O)[C@H]([C@@H](C)O)NC(=O)[C@H](CCN)NC(=O)[C@H](CCN)NC(=O)[C@H]([C@@H](C)O)NC1=O [Compound 29] ({Benzoyl(4-Ph)}-[Dab]T[Dab][Dab][Dab][dL]T[Dab][Dab]T; lactam 4-C)	1 µg/mL

Attention now shifts to the item below.
The compound identified as CC(C)C[C@H]1NC(=O)[C@H](CCN)NC(=O)[C@@H](NC(=O)[C@H](CN)NC(=O)[C@@H](NC(=O)[C@H](CCN)NC(=O)c2cc(Cl)cc(Cl)c2)[C@@H](C)O)CCNC(=O)[C@H]([C@@H](C)O)NC(=O)[C@H](CCN)NC(=O)[C@H](CCN)NC(=O)[C@H]([C@@H](C)O)NC1=O [Compound 118] ({Benzoyl(3,5-Cl2)}-[Dab]T[Dap][Dab][Dab][dL]T[Dab][Dab]T; lactam 4-C) registered its MIC at 0.25 µg/mL
